Tested on: A549
test_protocol: Dark toxicity against human A549 cells assessed as reduction in metabolic activity at 10 uM incubated for 4 hrs by MTT assay
Assay type: cell-based
Set-up: scale not given: the % may be the effect or the level left
experimental_parameters: a549, 4 h
Would you kindly list Activity for each of these compounds?
Write the value in % as a bare number.

Q: Given the entry C/C(=N\NS(=O)(=O)c1ccc(C)cc1)c1c2nc(c(-c3ccc(O)cc3)c3ccc([nH]3)c3ccc([nH]3)c(-c3ccc(O)cc3)c3ccc1[nH]3)C=C2 , report its measured Activity.
Result: 13.93

Q: Given the entry CC(C)(C)OC(=O)N/N=C(\c1ccccc1)c1c2nc(c(-c3ccc([N+](=O)[O-])cc3)c3ccc([nH]3)c3ccc([nH]3)c(-c3ccc([N+](=O)[O-])cc3)c3ccc1[nH]3)C=C2 , report its measured Activity.
Result: 48.37

Q: Given the entry C/C(=N/NC(=O)OC(C)(C)C)c1c2nc(c(-c3ccc([N+](=O)[O-])cc3)c3ccc([nH]3)c3ccc([nH]3)c(-c3ccc([N+](=O)[O-])cc3)c3ccc1[nH]3)C=C2 , report its measured Activity.
Result: 49.14

Cited source for all entries: ChEMBL document CHEMBL6087389
